target: rF2-Nef protein (HIV-1 Subtype C), full length wild type (HIV-1 subtype C (F2 isolate)); experiment: MST
Measured Kd values are reported for all entries that follow.
Answer format: numeric, µM implied, no suffix.

binder	Kd (µM)
PRCRERRRNERLRRESVRPV [CD80 cytosolic tail peptide (20-mer)]	27

Turning now to a further binder:
For LWKWKKKKRPRNSYKCGTNT [CD86 cytosolic tail peptide (20-mer)] , what is its reported Kd? 0.112
